The origin of these recorded values is patent US20240368302A1.

test.target: T1, human TROP2-Fc protein antigen (human, UniProt P09758 27-274)
T1 construct: extracellular domain; also called CRD + TY-1 + CPD; not shown: IgG Fc of the pFUSE-IgG plasmid
T1 sequence (looked up): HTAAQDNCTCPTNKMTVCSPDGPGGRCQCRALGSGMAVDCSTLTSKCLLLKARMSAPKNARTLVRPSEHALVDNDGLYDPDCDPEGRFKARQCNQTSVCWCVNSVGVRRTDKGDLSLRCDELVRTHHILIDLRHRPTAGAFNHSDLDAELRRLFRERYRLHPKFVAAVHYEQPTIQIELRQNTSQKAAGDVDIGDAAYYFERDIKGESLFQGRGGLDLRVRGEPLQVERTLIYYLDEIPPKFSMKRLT
protocol.notes: SPR (Biacore 8K), human TROP2-Fc on CM-5 chip, VHH in flow
measurement.name: pKd
On this scale, pKd is minus log10 of a concentration expressed in M (mol/L).

Fill in the blank: the reported pKd of MY1530-5-54 (VHH, Expressed in E. coli WK6 from vector pMECS, purified on a nickel column; also called MY1530-5-54 VHH; anti-TROP2 single domain antibody) VHH: QVQLQESGGGSVQPGGSLRLSCVASGYTASSVCMAWFRQAPGKERELVAGYYHSGGTYYGDSVKGRFTASQDNAKNTLYLQMNSLKPEDTATYYCARARYPSSACGTSPSNYNIWGQGTQVTVSS is ____.
9.70

And MY1530-1-26 (VHH, Expressed in E. coli WK6 from vector pMECS, purified on a nickel column; also called MY1530-1-26 VHH; anti-TROP2 single domain antibody) VHH: QVQLQESGGGSVQAGGSLRLSCVVSGYTTTRYSMAWFRQAPGKEREGVAGIDTDVLTTYKPSVEGRFTISRDSAKRTLYLQMNSLKPEDTAMYYCATGTGNFLALDPVWYNTWGQGTQVTVSS ?
8.72

And MY1530-1-20 (VHH, Expressed in E. coli WK6 from vector pMECS, purified on a nickel column; also called MY1530-1-20 VHH; anti-TROP2 single domain antibody) VHH: QVQLQESGGGSVLAGGSLRLSCTVSGSFVSSRSMAWFRQTPGKEREGVAAISQYGDPKYAGSVKGRFTMSRDNAKNTLLLQMNSLKPEDTAIYYCAAGEAWELATLSRSDYIYWGQGTQVTVSS ?
9.46

And MY1530-4-28 (VHH, Expressed in E. coli WK6 from vector pMECS, purified on a nickel column; also called MY1530-4-28 VHH; anti-TROP2 single domain antibody) VHH: QVQLQESGGGSVQAGGSLRLSCAASGFSVSTTWMHWVRQAPGKGLEWVSRIAINDHTFYAESVKGRFTMSTDNAKNTVYLQMTSLKPEDTAVYYCSPYSDYRIRGQGTQVTVSS ?
8.31
